The reported measurements were obtained from patent US11795460B2.

- Test system: TTR
- protocolDetails: TTR editing in primary human hepatocytes transfected with Spy Cas9 protein (RNP) loaded with dgRNAs (Table 8)
- Format: cell-based
- assaySetup: dgRNA transfected with Spy Cas9 protein (RNP)
// reported Avg % Insert for each item listed
# number only, unit % dropped from output

For orientation, consider the following solved cases.
{"columns": ["biosequence", "readoutType", "dataValue"],
 "data": [
  ["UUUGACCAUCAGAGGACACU (tested as dual guide RNA, chemistry not given here) [CR003344]", "Avg % Insert", 30.97],
  ["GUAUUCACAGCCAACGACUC (tested as dual guide RNA, chemistry not given here) [CR003373]", "Avg % Insert", 3.44]
]}

sequence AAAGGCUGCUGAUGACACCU (tested as dual guide RNA, chemistry not given here) [CR003353] , Avg % Insert observed: 59.38

What the record says about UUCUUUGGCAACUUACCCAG (tested as dual guide RNA, chemistry not given here) [CR003357] : Avg % Insert is 48.45

GET /value?item= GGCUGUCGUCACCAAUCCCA (tested as dual guide RNA, chemistry not given here) [CR003391] &field=Avg % Insert returns 34.46

Documented Avg % Insert of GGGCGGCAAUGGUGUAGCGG (tested as dual guide RNA, chemistry not given here) [CR003379] : 16.51

Per the records, this sequence ( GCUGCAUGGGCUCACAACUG (tested as dual guide RNA, chemistry not given here) [CR003361] ) has Avg % Insert equal to 12.52

For record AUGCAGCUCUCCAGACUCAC (tested as dual guide RNA, chemistry not given here) [CR003358] the listed Avg % Insert is 25.95

The value of Avg % Insert measured for the sequence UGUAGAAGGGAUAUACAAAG (tested as dual guide RNA, chemistry not given here) [CR003365] turned out to be 40.24

Documented Avg % Insert of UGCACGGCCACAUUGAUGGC (tested as dual guide RNA, chemistry not given here) [CR003349] : 9.00

Value of measured Avg % Insert for the entry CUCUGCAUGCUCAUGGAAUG (tested as dual guide RNA, chemistry not given here) [CR003369] : 11.67

What the record says about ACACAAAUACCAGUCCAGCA (tested as dual guide RNA, chemistry not given here) [CR003339] : Avg % Insert is 8.85

In plain terms, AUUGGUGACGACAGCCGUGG (tested as dual guide RNA, chemistry not given here) [CR003389] has a documented Avg % Insert of 19.19

Value of measured Avg % Insert for the entry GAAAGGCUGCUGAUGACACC (tested as dual guide RNA, chemistry not given here) [CR003352] : 27.27
